Experiment: log P by HPLC on reversed-phase C18, LC-MS, pH 2.7, formic acid (HCOOH)
Format: physicochemical
Details: reversed-phase C18 HPLC column; HPLC C18, pH 2.7, 0.1% aqueous formic acid/acetonitrile
Measure: chromatographic logP

Record excerpt, results attached:
In [3]: df
Out[3]:
                                   compound               measure  reported_measurement
0  Cc1cc(F)c(-n2cnc(C(F)F)n2)cc1[S+]([O-])CC(F)F (stereo not shown)  chromatographic logP                  1.81
1   Cc1cc(F)c(-n2cnc(C(F)F)n2)cc1SCC(F)(F)F  chromatographic logP                  3.28
2  Cc1cc(C)c(-n2cnc(C(F)(F)C(F)(F)Cl)n2)cc1SSc1cc(-n2cnc(C(F)(F)C(F)(F)Cl)n2)c(C)cc1C  chromatographic logP                  6.62
3      Cc1ccc(NNC(=O)C(F)(F)C(F)(F)F)c(C)c1  chromatographic logP                  2.91
4   FC(F)c1ncn(-c2ccc(Cl)c(SCC(F)(F)F)c2)n1  chromatographic logP                  3.28

[A] Cc1cc(C)c([S+]([O-])CC2CC2)cc1-n1cnc(C(F)(F)C(F)(F)F)n1 (stereo not shown)
[B] Cc1cc(C)c([S+]([O-])CC#N)cc1-n1cnc(C(F)F)n1 (stereo not shown)
[C] Cc1cc(C)c(-n2cnc(C(F)(F)C(F)(F)F)n2)cc1SSc1cc(-n2cnc(C(F)(F)C(F)(F)F)n2)c(C)cc1C
Qu. // sort entries: chromatographic logP, high to low Reply with the labels, ordered as the question asks.
Ans. C, A, B

[I] Cc1cc(C)c([S+]([O-])CCC(F)(F)F)cc1-n1cnc(C(F)F)n1 (stereo not shown)
[II] Cc1cc(C)c(-n2cnc(C(F)F)n2)cc1SCCC(F)(F)F
[III] Cc1ccc(NNC(=O)C(F)F)cc1
Qu. Form: Sort by [chromatographic logP] Order [ ascending ] Use the labels to give the requested order.
Ans. III, I, II

[1] Cc1cc(F)c(-n2cnc(C(F)F)n2)cc1SCC(F)F
[2] Cc1cc(C)c([S+]([O-])CC2CC2)cc1-n1cnc(C(F)F)n1 (stereo not shown)
[3] Cc1cc(F)c(-n2cnc(C(F)F)n2)cc1SSc1cc(-n2cnc(C(F)F)n2)c(F)cc1C
Qu. Please order the records by their reported chromatographic logP, lowest number first. Respond with an ordered listing of the labels, as requested.
Ans. 2, 1, 3
(2: 2.05, 1: 2.94, 3: 4.33)

* * *

Assay: log P by HPLC on reversed-phase C18, eluent variant not stated
Type: physicochemical
Conditions: reversed-phase C18 HPLC column
Measure: chromatographic logP
Give only the figure.

Qu. Need chromatographic logP, item Cc1ccc(NNC(=O)C(F)F)c(C)c1
Ans. 1.8

* * *

Experiment: log P by HPLC on reversed-phase C18, pH 2.3, phosphoric acid (H3PO4)
Assay type: physicochemical
Settings: reversed-phase C18 HPLC column; HPLC C18, pH 2.3, 0.1% aqueous phosphoric acid/acetonitrile
Measure: chromatographic logP
Respond with the number and no other words.

Qu. I'd like to know its chromatographic logP. The compound in question is Cc1cc(C)c(-n2cnc(C(F)F)n2)cc1SCC(F)F [I-A-1]
Ans. 3.06

* * *

Test: log P by HPLC on reversed-phase C18, LC-MS, pH 2.7, formic acid (HCOOH)
Type: physicochemical
Settings: reversed-phase C18 HPLC column; HPLC C18, pH 2.7, 0.1% aqueous formic acid/acetonitrile
Measure: chromatographic logP

[P] Cc1ccc(NNC(=O)C(F)(F)C(F)F)c(C)c1
[Q] Cc1ccc(NNC(=O)C(F)F)c(F)c1
[R] Cc1cc(C)c(-n2cnc(C(F)(F)C(F)F)n2)cc1SSc1cc(-n2cnc(C(F)(F)C(F)F)n2)c(C)cc1C
Qu. Please put the entries in order of rising chromatographic logP. Please respond with the labels ordered as the question requires.
Ans. Q, P, R
(Q: 1.66, P: 2.46, R: 5.22)

[a] Cc1cc(C)c([S+]([O-])CC(F)(F)F)cc1-n1cnc(C(F)(F)C(F)(F)F)n1 (stereo not drawn)
[b] Cc1ccc(-n2cnc(C(F)F)n2)cc1[S+]([O-])CC(F)(F)F (stereo not drawn)
Qu. // compare measured chromatographic logP, left a , right b , return larger # reply format: chosen label
Ans. a
(a: 3.27, b: 2.1)

* * *

Assay: log P by HPLC on reversed-phase C18, LC-MS, pH 2.7, formic acid (HCOOH)
Format: physicochemical
Conditions: reversed-phase C18 HPLC column; HPLC C18, pH 2.7, 0.1% aqueous formic acid/acetonitrile
Measure: chromatographic logP

Reference set, count: 3
                                   compound  reported_measurement
0  Cc1cc(F)c(-n2cnc(C(F)F)n2)cc1[S+]([O-])CC(F)(F)F (centres unmarked)                  2.12
1      Cc1cc(C)c(-n2cnc(C(F)F)n2)cc1SCC(F)F                  3.02
2  Cc1ccc(-n2cnc(C(F)F)n2)cc1SSc1cc(-n2cnc(C(F)F)n2)ccc1C                  4.19

[1] [O-][S+](CC(F)(F)F)c1cc(-n2cnc(C(F)F)n2)ccc1Cl (centres unmarked)
[2] Cc1ccc(-n2cnc(C(F)(F)C(F)(F)F)n2)c(C)c1
Qu. Which entry has a larger number for chromatographic logP, 1 or 2 ? The response must carry the label of the picked entry.
Ans. 2

* * *

Assay: log P by HPLC on reversed-phase C18, LC-MS, pH 2.7, formic acid (HCOOH)
Assay type: physicochemical
Conditions: reversed-phase C18 HPLC column; HPLC C18, pH 2.7, 0.1% aqueous formic acid/acetonitrile
Measure: chromatographic logP

See these solved cases before continuing.
>>> print(df.to_string())
                                   compound  reported_measurement
0  Cc1cc(C)c([S+]([O-])CC(F)F)cc1-n1cnc(C(F)F)n1 (stereo not shown) [I-A-3]                   1.9
1  Cc1cc(C)c([S+]([O-])CC(F)F)cc1-n1cnc(C(F)(F)C(F)(F)Cl)n1 (stereo not shown) [I-A-12]                  3.02

[a] Cc1cc(C)c([S+]([O-])CC(C)C)cc1-n1cnc(C(F)(F)C(F)(F)F)n1 (stereo not shown) [I-A-39]
[b] Cc1ccc(-n2cnc(C(F)F)n2)cc1 [IV-A-7]
Qu. Which of these two has the smaller recorded chromatographic logP: a or b ? Kindly state the label of the option you pick.
Ans. b
(b: 2.26, a: 3.46)

* * *

Assay: log P by HPLC on reversed-phase C18, LC-MS, pH 2.7, formic acid (HCOOH)
Assay type: physicochemical
Details: reversed-phase C18 HPLC column; HPLC C18, pH 2.7, 0.1% aqueous formic acid/acetonitrile
Measure: chromatographic logP

Before answering, review these 5 worked examples.
>>> print(df.to_string())
                                   molecule  reported_measurement
0  Cc1cc(C)c(-n2cnc(C(F)(F)C(F)(F)F)n2)cc1SCC(C)C                  5.58
1  Cc1cc(C)c([S+]([O-])CC(F)F)cc1-n1cnc(C(F)(F)C(F)(F)F)n1 (stereo not drawn)                  2.95
2  Cc1cc(C)c(-n2cnc(C(F)F)n2)cc1SCC(F)(F)C(F)F                  3.37
3  Cc1cc(F)c(-n2cnc(C(F)F)n2)cc1[S+]([O-])CC1CC1 (stereo not drawn)                  1.96
4  Cc1cc(C)c(-n2cnc(C(F)F)n2)cc1SSc1cc(-n2cnc(C(F)F)n2)c(C)cc1C                  4.45

[P] Cc1cc(C)c(-n2cnc(C(F)F)n2)cc1SCC#N
[Q] Cc1ccc(-n2cnc(C(F)(F)C(F)(F)Cl)n2)c(C)c1
Qu. // compare measured chromatographic logP between P and Q ; output the lower one Your choice should be expressed through its label.
Ans. P
(P: 2.47, Q: 3.88)

* * *

Assay: log P by HPLC on reversed-phase C18, LC-MS, pH 2.7, formic acid (HCOOH)
Assay type: physicochemical
Conditions: reversed-phase C18 HPLC column; HPLC C18, pH 2.7, 0.1% aqueous formic acid/acetonitrile
Measure: chromatographic logP

Worked cases, answers included:
>>> print(df.to_string())
                                  compound  reported_measurement
0  Cc1cc(C)c(-n2cnc(C(F)F)n2)cc1SCC(F)(F)F                  3.33
1            Cc1ccc(N/N=C(\N)C(F)F)c(Cl)c1                   2.5

[1] CSc1cc(-n2cnc(C(F)F)n2)c(C)cc1C
[2] Cc1cc(C)c([S+](C)[O-])cc1-n1cnc(C(F)F)n1 (centres unmarked)
[3] Cc1cc(Cl)c(-n2cnc(C(F)F)n2)cc1SSc1cc(-n2cnc(C(F)F)n2)c(Cl)cc1C
Qu. Arrange the 3 entries by chromatographic logP so the values rise. Respond with an ordered listing of the labels, as requested.
Ans. 2, 1, 3
(2: 1.46, 1: 3.01, 3: 4.53)

[a] Cc1ccc(-n2cnc(C(F)F)n2)c(C)c1
[b] Cc1cc(C)c(-n2cnc(C(F)(F)C(F)(F)F)n2)cc1SCC(F)(F)F
[c] Cc1cc(F)c(-n2cnc(C(F)F)n2)cc1[S+](C)[O-] (centres unmarked)
Qu. Rank ascending by chromatographic logP. Answer by listing the labels in the requested order.
Ans. c, a, b
(c: 1.37, a: 2.43, b: 4.49)

[I] Cc1cc(C)c([S+]([O-])CC(F)(F)F)cc1-n1cnc(C(F)F)n1 (centres unmarked)
[II] Cc1ccc(-n2cnc(C(F)F)n2)cc1SCC(F)(F)F
[III] Cc1cc(C)c(-n2cnc(C(F)(F)C(F)(F)F)n2)cc1SCC1CC1
[IV] Cc1cc(F)c(-n2cnc(C(F)F)n2)cc1[S+]([O-])CC#N (centres unmarked)
Qu. // smallest chromatographic logP at index 0, largest at the end Write the labels out in the order the request specifies.
Ans. IV, I, II, III
(IV: 1.4, I: 2.19, II: 3.24, III: 5.11)

[a] Cc1cc(C)c([S+]([O-])CC(F)(F)C(F)(F)F)cc1-n1cnc(C(F)F)n1 (centres unmarked)
[b] N/C(=N\Nc1ccc(F)cc1)C(F)F
Qu. Please tell me which of the two, a or b , has the higher reported chromatographic logP value. Lab note: record the label of whichever item you select.
Ans. a
(a: 2.72, b: 1.34)

[P] Cc1ccc(-n2cnc(C(F)F)n2)c(Cl)c1
[Q] Cc1ccc(N/N=C(\N)C(F)(F)C(F)(F)F)c(C)c1
Qu. Which is greater in chromatographic logP, the first item P or the second item Q ? Which one? Tell me its label.
Ans. Q
(Q: 3.65, P: 2.46)
